Each entry below carries its reported kon.
molecular target: T1, human IL-6 (human, UniProt P05231 30-212); assay: SPR (Biacore T200), antibody from cell supernatant captured on Protein A, IL-6 flowed over, 37 C
T1 construct: also called interleukin-6
T1 sequence (P05231 30-212 limits assumed): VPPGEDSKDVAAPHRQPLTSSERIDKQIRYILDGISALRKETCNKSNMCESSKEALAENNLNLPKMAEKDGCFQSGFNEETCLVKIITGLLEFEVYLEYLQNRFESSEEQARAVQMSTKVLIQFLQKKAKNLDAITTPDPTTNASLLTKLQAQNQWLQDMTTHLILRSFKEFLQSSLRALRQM
Report the value in M⁻¹ s⁻¹ with no unit label.

anti-IL-6 antibody, heavy chain T65A, G66D / light chain WT (antibody, human IgG1, V domains shown, Derived as m2; Engineered human IgG1) VH: EVQLVESGGGLVQPGGSLRLSCAASGFTFSPFAMSWVRQAPGKGLEWVAKISPGGSWTYYSDTVADRFTFSLDTSKSTAYLQMNSLRAEDTAVYYCARQLWGYYALDIWGQGTLVTVSS VL: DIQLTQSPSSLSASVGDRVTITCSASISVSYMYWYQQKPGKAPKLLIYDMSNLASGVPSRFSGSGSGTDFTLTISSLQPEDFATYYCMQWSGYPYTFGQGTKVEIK : 1.64e+06
anti-IL-6 antibody, heavy chain T63G, G66D / light chain WT (antibody, human IgG1, V domains shown, Derived as m2; Engineered human IgG1) VH: EVQLVESGGGLVQPGGSLRLSCAASGFTFSPFAMSWVRQAPGKGLEWVAKISPGGSWTYYSDGVTDRFTFSLDTSKSTAYLQMNSLRAEDTAVYYCARQLWGYYALDIWGQGTLVTVSS VL: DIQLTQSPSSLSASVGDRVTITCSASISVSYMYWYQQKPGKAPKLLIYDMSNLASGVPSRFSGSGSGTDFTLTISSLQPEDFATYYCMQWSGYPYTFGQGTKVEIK : 1.86e+06

Please turn your attention to the following entry.
Quick note, kon for anti-IL-6 antibody, heavy chain T63E, G66D / light chain WT (antibody, human IgG1, V domains shown, Derived as m2; Engineered human IgG1) VH: EVQLVESGGGLVQPGGSLRLSCAASGFTFSPFAMSWVRQAPGKGLEWVAKISPGGSWTYYSDEVTDRFTFSLDTSKSTAYLQMNSLRAEDTAVYYCARQLWGYYALDIWGQGTLVTVSS VL: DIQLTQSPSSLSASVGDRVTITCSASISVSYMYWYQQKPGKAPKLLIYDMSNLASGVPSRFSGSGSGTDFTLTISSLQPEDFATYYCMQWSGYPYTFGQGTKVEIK landed at 2.61e+06
